Assay: Self-assembly study: putting peptides in solution in water, macroscopic, ATR-FTIR, TEM and SAXS analysis
Assay type: physicochemical
Conditions: 3 to 15% by mass of peptide in water; form and diameter of the self-assembled structure, or soluble / insoluble
Bridge positions count the residues as written; N and C are the ends. Square brackets hold non-standard residues; d marks the D form. Peptide text beside a SMILES is read from it. ξ: configuration not given here. dPhe(3-Br) = N[C@H](Cc1cccc(Br)c1)C(=O)O; d2Nal = N[C@H](Cc1ccc2ccccc2c1)C(=O)O; d(hPhe) = N[C@H](CCc1ccccc1)C(=O)O; Thr(3ξ) = CC(O)[C@H](N)C(=O)O
endpoint: Assembly

CC(C)[C@@H]1NC(=O)[C@H](CCCCN)NC(=O)[C@@H](CCc2ccccc2)NC(=O)[C@H](Cc2ccc(O)cc2)NC(=O)[C@@H](NC(=O)[C@H](N)Cc2ccc3ccccc3c2)CSSC[C@@H](C(=O)N[C@H](C(N)=O)C(C)O)NC1=O (stereo partly shown) [Example 11] (H-[d2Nal]CY[d(hPhe)]KVC[Thr(3ξ)]-NH2; disulfide 2-7)
soluble
CC(C)[C@@H]1NC(=O)[C@H](CCCCN)NC(=O)[C@@H](C(C)C)NC(=O)[C@H](Cc2ccc(O)cc2)NC(=O)[C@@H](NC(=O)[C@H](N)Cc2ccc3ccccc3c2)CSSC[C@@H](C(=O)N[C@H](C(N)=O)C(C)O)NC1=O (stereo partly shown) [Example 5] (H-[d2Nal]CY[dV]KVC[Thr(3ξ)]-NH2; disulfide 2-7)
soluble
CC(C)[C@@H]1NC(=O)[C@H](CCCCN)NC(=O)[C@@H](Cc2cccc(Br)c2)NC(=O)[C@H](Cc2ccc(O)cc2)NC(=O)[C@@H](NC(=O)[C@H](N)Cc2ccc3ccccc3c2)CSSC[C@@H](C(=O)N[C@H](C(N)=O)C(C)O)NC1=O (stereo partly shown) [Example 18] (H-[d2Nal]CY[dPhe(3-Br)]KVC[Thr(3ξ)]-NH2; disulfide 2-7)
18.4-18.8 nm monodisperse
CC(C)[C@@H]1NC(=O)[C@H](CCCCN)NC(=O)[C@@H](Cc2ccc(/N=N/c3ccccc3)cc2)NC(=O)[C@H](Cc2ccc(O)cc2)NC(=O)[C@@H](NC(=O)[C@H](N)Cc2ccc3ccccc3c2)CSSC[C@@H](C(=O)N[C@H](C(N)=O)[C@@H](C)O)NC1=O [Example 25]
10 nm monodisperse nanotube

Task: Please look up its Assembly: COCCOCCOc1ccc(C[C@H]2NC(=O)[C@H](Cc3ccc(O)cc3)NC(=O)[C@@H](NC(=O)[C@H](N)Cc3ccc4ccccc4c3)CSSC[C@@H](C(=O)N[C@H](C(N)=O)[C@@H](C)O)NC(=O)[C@H](C(C)C)NC(=O)[C@H](CCCCN)NC2=O)cc1 [Example 22]
Result: 17.4 nm monodisperse nanotube

====

pKi: −log10 of the molar value. Bridge positions count the residues as written; N and C are the ends. Square brackets hold non-standard residues; d marks the D form. Peptide text beside a SMILES is read from it. ξ: configuration not given here. dPhe(3,5-F2) = N[C@H](Cc1cc(F)cc(F)c1)C(=O)O; dPhe(4-Br) = N[C@H](Cc1ccc(Br)cc1)C(=O)O; dPhe(4-F) = N[C@H](Cc1ccc(F)cc1)C(=O)O; d2Nal = N[C@H](Cc1ccc2ccccc2c1)C(=O)O; dPhe(2-F) = N[C@H](Cc1ccccc1F)C(=O)O; d(hPhe) = N[C@H](CCc1ccccc1)C(=O)O; Thr(3ξ) = CC(O)[C@H](N)C(=O)O
This section lists pKi readings for UniProt:P30874.
Sequence (P30874 whole entry): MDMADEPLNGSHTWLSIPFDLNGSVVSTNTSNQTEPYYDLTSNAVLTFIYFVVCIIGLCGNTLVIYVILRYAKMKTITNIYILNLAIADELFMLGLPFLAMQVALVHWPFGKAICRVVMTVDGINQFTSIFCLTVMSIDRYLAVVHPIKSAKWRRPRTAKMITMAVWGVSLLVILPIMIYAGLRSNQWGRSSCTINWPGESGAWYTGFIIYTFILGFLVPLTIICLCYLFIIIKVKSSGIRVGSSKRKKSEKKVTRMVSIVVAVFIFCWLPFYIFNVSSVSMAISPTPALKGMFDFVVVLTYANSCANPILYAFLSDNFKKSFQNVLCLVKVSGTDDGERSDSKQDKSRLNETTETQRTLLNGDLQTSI

CC(C)[C@@H]1NC(=O)[C@H](CCCCN)NC(=O)[C@@H](Cc2ccc(Br)cc2)NC(=O)[C@H](Cc2ccc(O)cc2)NC(=O)[C@@H](NC(=O)[C@H](N)Cc2ccc3ccccc3c2)CSSC[C@@H](C(=O)N[C@H](C(N)=O)C(C)O)NC1=O (some centres unmarked) [Example 12] (H-[d2Nal]CY[dPhe(4-Br)]KVC[Thr(3ξ)]-NH2; disulfide 2-7)
≥ 8.30
CC(C)[C@@H]1NC(=O)[C@H](CCCCN)NC(=O)[C@@H](Cc2ccc(O)cc2)NC(=O)[C@H](Cc2ccc(O)cc2)NC(=O)[C@@H](NC(=O)[C@H](N)Cc2ccc3ccccc3c2)CSSC[C@@H](C(=O)N[C@H](C(N)=O)C(C)O)NC1=O (some centres unmarked) [Example 14] (H-[d2Nal]CY[dY]KVC[Thr(3ξ)]-NH2; disulfide 2-7)
≥ 8.30
CC(C)[C@@H]1NC(=O)[C@H](CCCCN)NC(=O)[C@@H](Cc2c3ccccc3cc3ccccc23)NC(=O)[C@H](Cc2ccc(O)cc2)NC(=O)[C@@H](NC(=O)[C@H](N)Cc2ccc3ccccc3c2)CSSC[C@@H](C(=O)N[C@H](C(N)=O)C(C)O)NC1=O (some centres unmarked)
≥ 7.30

Task: Reported pKi for UniProt:P30874, given CC(C)[C@@H]1NC(=O)[C@H](CCCCN)NC(=O)[C@@H](C)NC(=O)[C@H](Cc2ccc(O)cc2)NC(=O)[C@@H](NC(=O)[C@H](N)Cc2ccc3ccccc3c2)CSSC[C@@H](C(=O)N[C@H](C(N)=O)C(C)O)NC1=O (some centres unmarked) [Example 4] (H-[d2Nal]CY[dA]KVC[Thr(3ξ)]-NH2; disulfide 2-7) ?
Result: ≥ 5.30

Task: Reported pKi for UniProt:P30874, given CC(C)[C@@H]1NC(=O)[C@H](CCCCN)NC(=O)[C@@H](Cc2csc3ccccc23)NC(=O)[C@H](Cc2ccc(O)cc2)NC(=O)[C@@H](NC(=O)[C@H](N)Cc2ccc3ccccc3c2)CSSC[C@@H](C(=O)N[C@H](C(N)=O)C(C)O)NC1=O (some centres unmarked) ?
Result: ≥ 8.30

Task: Reported pKi for UniProt:P30874, given CC(C)[C@@H]1NC(=O)[C@H](CCCCN)NC(=O)[C@@H](Cc2ccccc2F)NC(=O)[C@H](Cc2ccc(O)cc2)NC(=O)[C@@H](NC(=O)[C@H](N)Cc2ccc3ccccc3c2)CSSC[C@@H](C(=O)N[C@H](C(N)=O)C(C)O)NC1=O (some centres unmarked) [Example 16] (H-[d2Nal]CY[dPhe(2-F)]KVC[Thr(3ξ)]-NH2; disulfide 2-7) ?
Result: ≥ 8.30

Task: Reported pKi for UniProt:P30874, given CC(C)[C@@H]1NC(=O)[C@H](CCCCN)NC(=O)[C@@H](C(C)C)NC(=O)[C@H](Cc2ccc(O)cc2)NC(=O)[C@@H](NC(=O)[C@H](N)Cc2ccc3ccccc3c2)CSSC[C@@H](C(=O)N[C@H](C(N)=O)C(C)O)NC1=O (some centres unmarked) [Example 5] (H-[d2Nal]CY[dV]KVC[Thr(3ξ)]-NH2; disulfide 2-7) ?
Result: ≥ 6.15

Task: Reported pKi for UniProt:P30874, given CC(C)[C@@H]1NC(=O)[C@H](CCCCN)NC(=O)[C@@H](Cc2ccc(F)cc2)NC(=O)[C@H](Cc2ccc(O)cc2)NC(=O)[C@@H](NC(=O)[C@H](N)Cc2ccc3ccccc3c2)CSSC[C@@H](C(=O)N[C@H](C(N)=O)C(C)O)NC1=O (some centres unmarked) [Example 13] (H-[d2Nal]CY[dPhe(4-F)]KVC[Thr(3ξ)]-NH2; disulfide 2-7) ?
Result: ≥ 8.30

Task: Reported pKi for UniProt:P30874, given CC(C)[C@@H]1NC(=O)[C@H](CCCCN)NC(=O)[C@@H](CCc2ccccc2)NC(=O)[C@H](Cc2ccc(O)cc2)NC(=O)[C@@H](NC(=O)[C@H](N)Cc2ccc3ccccc3c2)CSSC[C@@H](C(=O)N[C@H](C(N)=O)C(C)O)NC1=O (some centres unmarked) [Example 11] (H-[d2Nal]CY[d(hPhe)]KVC[Thr(3ξ)]-NH2; disulfide 2-7) ?
Result: ≥ 7.30

Task: Reported pKi for UniProt:P30874, given CC(C)[C@@H]1NC(=O)[C@H](CCCCN)NC(=O)[C@@H](Cc2cc(F)cc(F)c2)NC(=O)[C@H](Cc2ccc(O)cc2)NC(=O)[C@@H](NC(=O)[C@H](N)Cc2ccc3ccccc3c2)CSSC[C@@H](C(=O)N[C@H](C(N)=O)C(C)O)NC1=O (some centres unmarked) [Example 17] (H-[d2Nal]CY[dPhe(3,5-F2)]KVC[Thr(3ξ)]-NH2; disulfide 2-7) ?
Result: ≥ 8.30
